MEASURED ON: UniProt P30559
Sequence (P30559 whole entry): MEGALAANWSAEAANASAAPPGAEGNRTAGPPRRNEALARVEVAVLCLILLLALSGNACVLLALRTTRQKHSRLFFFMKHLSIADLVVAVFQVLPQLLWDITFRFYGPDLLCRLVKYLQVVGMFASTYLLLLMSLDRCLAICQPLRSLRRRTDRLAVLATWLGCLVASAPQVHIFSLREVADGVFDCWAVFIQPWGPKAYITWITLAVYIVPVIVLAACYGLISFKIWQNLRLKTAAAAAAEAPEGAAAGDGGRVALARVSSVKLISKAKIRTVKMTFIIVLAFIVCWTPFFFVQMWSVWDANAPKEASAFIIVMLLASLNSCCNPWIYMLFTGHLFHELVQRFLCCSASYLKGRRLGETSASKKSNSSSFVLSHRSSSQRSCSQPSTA
TEST DETAILS: […] antagonistic activity against cloned human oxytocin receptor over-expressed in a stable HEK293 cell line
ATTRIBUTE MEASURED: Ki (nM)

Exercise: Any idea what its Ki is? The compound is CC[C@@H](C)[C@@H]1NC(=O)[C@H]([C@@H](C)CC)NC(=O)[C@@H](Cc2c[nH]c3ccccc23)NC(=O)CCCSCC(CCCCN)NC(=O)[C@H](CC(N)=O)NC1=O (single isomer, unassigned)
Solution: 2.8

I. CC[C@@H](C)[C@@H]1NC(=O)[C@H]([C@@H](C)CC)NC(=O)[C@@H](Cc2c[nH]c3ccccc23)NC(=O)CCCSCC2CCCN2C(=O)[C@H](CC(N)=O)NC1=O (single isomer, unassigned)
II. CC[C@@H](C)[C@@H]1NC(=O)[C@H]([C@@H](C)CC)NC(=O)[C@@H](Cc2c[nH]c3ccccc23)NC(=O)CCCSCC(CCCN)NC(=O)[C@H](CC(N)=O)NC1=O (single isomer, unassigned)
Exercise: Problem: Given the entries I and II , determine which has the lower reported Ki. Lab note: record the label of whichever item you select.
Solution: II
(II: 26 nM, I: 1000 nM)

Origin of the recorded values: ChEMBL document CHEMBL1132671
